Target: Cytochrome P450 26A1 (Homo sapiens)
Sequence (O43174 whole entry): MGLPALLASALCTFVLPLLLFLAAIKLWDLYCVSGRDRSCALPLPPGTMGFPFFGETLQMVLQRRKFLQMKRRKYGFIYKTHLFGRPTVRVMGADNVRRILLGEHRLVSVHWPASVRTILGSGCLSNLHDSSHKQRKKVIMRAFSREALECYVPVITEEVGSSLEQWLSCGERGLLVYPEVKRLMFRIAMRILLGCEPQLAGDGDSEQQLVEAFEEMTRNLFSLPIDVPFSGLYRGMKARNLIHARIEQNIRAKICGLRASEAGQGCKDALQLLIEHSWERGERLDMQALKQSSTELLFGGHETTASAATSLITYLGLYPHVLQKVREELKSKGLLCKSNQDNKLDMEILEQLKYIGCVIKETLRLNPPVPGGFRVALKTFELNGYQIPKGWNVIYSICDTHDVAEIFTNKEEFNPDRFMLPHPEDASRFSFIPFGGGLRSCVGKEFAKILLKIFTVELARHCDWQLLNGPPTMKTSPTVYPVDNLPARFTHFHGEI
Assay: Inhibition of CYP26A1 in human MCF7 cells assessed as all-trans retinoic acid metabolism
Output Fulfilled for records whose IC50 is lower than 10 µM, Not fulfilled for records at or above 10 µM.

> print(dat)
                                   compound     labelvalue
1      O=C1/C(=C/c2ccc(O)cc2)CCc2cc(O)ccc21      Fulfilled
2       O=C1/C(=C/c2ccccc2Br)CCc2cc(O)ccc21  Not fulfilled
3    CN(C)c1ccc(/C=C2\CCc3cc(O)ccc3C2=O)cc1  Not fulfilled
4  Nc1ccc(CC2CCc3cc(O)ccc3C2=O)cc1 (single isomer, unassigned; (+))  Not fulfilled
5      COc1ccc2c(c1)CC/C(=C\c1ccccc1Br)C2=O      Fulfilled

Next compound, please.
Ask | Is IC50 of "CCC(CC)[C@H](c1ccc(Nc2nc3ccccc3s2)cc1)n1cncn1" strictly below 10 µM?
Reply | Fulfilled

---

Molecular target: Cytochrome P450 26A1 (Homo sapiens, UniProt O43174)
Test: Inhibition of CYP26A1 in human MCF7 cells assessed as all-trans retinoic acid metabolism
Property: IC50; scope: individual compounds
Note to self: number, then unit, no commentary.

See these solved cases before continuing.
> print(dat)
                                   compound                               studytarget  quantity  result
1  CN(C)c1ccc(CC2CCc3cc(O)ccc3C2=O)cc1 (centres undefined)  Cytochrome P450 26A1 (Homo sapiens, UniProt O43174)      IC50   25 µM
2  COc1ccc2c(c1)CCC(Cc1ccc(O)cc1)C2 (centres undefined)  Cytochrome P450 26A1 (Homo sapiens, UniProt O43174)      IC50   25 µM
3       COc1ccc2c(c1)CC/C(=C\c1ccccc1C)C2=O  Cytochrome P450 26A1 (Homo sapiens, UniProt O43174)      IC50   20 µM
4  O=C1c2ccc(O)cc2CCC1Cc1ccc(O)cc1 (centres undefined)  Cytochrome P450 26A1 (Homo sapiens, UniProt O43174)      IC50   20 µM
5  O=C1/C(=C/c2ccc(-c3ccccc3)cc2)CCc2cc(O)ccc21  Cytochrome P450 26A1 (Homo sapiens, UniProt O43174)      IC50   50 µM
6  O=C1/C(=C/c2ccccc2-c2ccccc2)CCc2cc(O)ccc21  Cytochrome P450 26A1 (Homo sapiens, UniProt O43174)      IC50   20 µM

Ask | For COc1ccc2c(c1)CCC(Cc1cc(C(F)(F)F)ccc1C(F)(F)F)C2=O (centres undefined) , what is its reported IC50?
Reply | 50 µM

Ask | For COc1ccc2c(c1)CCC(Cc1ccccc1C)C2=O (centres undefined) , what is its reported IC50?
Reply | 20 µM

Ask | For Nc1ccc(CC2CCc3cc(O)ccc3C2=O)cc1 (single isomer, unassigned; (-)) , what is its reported IC50?
Reply | 39 µM
